biological target: HLA-A*02:11; assay: IEDB peptide-MHC binding, purified MHC/direct/fluorescence; filed as Kd, often an IC50 or EC50 that approximates it; bounds were set here for any values at or beyond the usual limits of such assays; conditions: source organism: Orthohantavirus puumalaense
pKd: −log10 of the molar value.
observable: pKd

Field pKd (HLA-A*02:11), entry "QIQAGNFHW" : ≤ 4.70

====

molecular target: HLA-A*02:03; test: IEDB peptide-MHC binding, purified MHC/direct/fluorescence; filed as Kd, often an IC50 or EC50 that approximates it; bounds were set here for any values at or beyond the usual limits of such assays; conditions: source organism: Yersinia enterocolitica subsp. enterocolitica 8081
pKd: −log10 of the molar value.
observable: pKd

Sample "KSRQGDTKV" , system: HLA-A*02:03. Its pKd is ≤ 4.70
